Target: DnaG(ZBD+RPD) (Bacillus subtilis)
measure: Ki
Returns: string containing the number followed by the unit.

Qu. API: value(readout= Ki, system= DnaG(ZBD+RPD) (Bacillus subtilis), query= Nc1nc2c(ncn2[C@@H]2O[C@H](COP(=O)(O)OP(=O)(O)OP(=O)(O)O)[C@@H](OP(=O)(O)OP(=O)(O)O)[C@H]2O)c(=O)[nH]1 )
Ans. 115 µM

====

Lab note: Ki readings collected with full-length DnaG (Bacillus subtilis, UniProt P05096) for the following compounds.
Sequence (P05096 whole entry): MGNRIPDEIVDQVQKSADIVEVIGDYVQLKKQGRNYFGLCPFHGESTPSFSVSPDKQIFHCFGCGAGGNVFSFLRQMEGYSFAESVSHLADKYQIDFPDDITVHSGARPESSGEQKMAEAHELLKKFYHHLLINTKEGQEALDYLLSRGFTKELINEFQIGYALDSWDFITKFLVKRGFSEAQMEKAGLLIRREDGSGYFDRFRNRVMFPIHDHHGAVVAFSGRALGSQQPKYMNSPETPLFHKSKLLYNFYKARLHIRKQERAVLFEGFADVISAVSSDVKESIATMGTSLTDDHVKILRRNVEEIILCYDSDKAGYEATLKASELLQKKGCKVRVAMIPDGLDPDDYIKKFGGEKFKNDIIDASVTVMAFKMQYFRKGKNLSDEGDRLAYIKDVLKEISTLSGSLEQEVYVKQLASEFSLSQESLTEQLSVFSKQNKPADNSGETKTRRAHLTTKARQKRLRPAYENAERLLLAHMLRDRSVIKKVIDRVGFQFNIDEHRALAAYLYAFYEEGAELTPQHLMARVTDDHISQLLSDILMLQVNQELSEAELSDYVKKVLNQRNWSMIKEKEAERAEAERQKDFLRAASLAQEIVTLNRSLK

Qu. API: value(readout= Ki, system= full-length DnaG (Bacillus subtilis, UniProt P05096), query= Nc1nc2c(ncn2[C@@H]2O[C@H](COP(=O)(O)OP(=O)(O)O)[C@@H](OP(=O)(O)OP(=O)(O)O)[C@H]2O)c(=O)[nH]1 )
Ans. 777 µM

New cases:
Qu. API: value(readout= Ki, system= full-length DnaG (Bacillus subtilis, UniProt P05096), query= Nc1nc2c(ncn2[C@@H]2O[C@H](COP(=O)(O)OP(=O)(O)OP(=O)(O)O)[C@@H](OP(=O)(O)OP(=O)(O)O)[C@H]2O)c(=O)[nH]1 )
Ans. 163 µM

Reference source for all entries: paper PMC8453095
